System: mRNA expressed from the genes (A) to (D) in rat liver
experiment_description: Behavior of genes (mRNA expression level, oligo-DNA microarray) in rat liver after 28-day oral administration
Format: in vivo
condition_description: gene group (C), Unigene No. Rn.4620
measurement_label: Behavior of gene caused by administration of chemical substance, Gene No. 3929

Solved entries (count: 5):
{"columns": ["compound", "meas_value"],
 "data": [
  ["Nc1cc([N+](=O)[O-])ccc1C(=O)O", "+"],
  ["Cc1ccc(N)cc1Cl", "−"],
  ["Nc1ccc(N)c(Cl)c1.O=S(=O)(O)O", "−"],
  ["CC(=O)Oc1ccccc1C(=O)O", "−"],
  ["Cc1cc(N)ccc1N.O=S(=O)(O)O", "+"]
]}

For O=C(OC[C@H]1O[C@@H](OC(=O)c2cc(O)c(O)c(OC(=O)c3cc(O)c(O)c(O)c3)c2)[C@H](OC(=O)c2cc(O)c(O)c(OC(=O)c3cc(O)c(O)c(O)c3)c2)[C@@H](OC(=O)c2cc(O)c(O)c(OC(=O)c3cc(O)c(O)c(O)c3)c2)[C@@H]1OC(=O)c1cc(O)c(O)c(OC(=O)c2cc(O)c(O)c(O)c2)c1)c1cc(O)c(O)c(OC(=O)c2cc(O)c(O)c(O)c2)c1 , what is its reported Behavior of gene caused by administration of chemical substance, Gene No. 3929?
−

For CC(=O)Nc1ccc(O)cc1 , what is its reported Behavior of gene caused by administration of chemical substance, Gene No. 3929?
−

For Nc1ccc([N+](=O)[O-])cc1N , what is its reported Behavior of gene caused by administration of chemical substance, Gene No. 3929?
−

For Cl.Cl.Nc1ccc(N)cc1 [TS059, p-Phenylenediamine 2HCl] , what is its reported Behavior of gene caused by administration of chemical substance, Gene No. 3929?
+

For NC(=O)c1ccccc1C(N)=O [TS073, Phthalamide] , what is its reported Behavior of gene caused by administration of chemical substance, Gene No. 3929?
−

For ClC(Cl)(Cl)Cl [TS003, Carbon tetrachloride] , what is its reported Behavior of gene caused by administration of chemical substance, Gene No. 3929?
−
